Taken from PubChem BioAssay (NCI).

System: UACC-257 melanoma
Experiment: NCI tumour cell line growth inhibition, 48 h
Test readout: TGI (µM)
Please respond with the number in µM and leave the unit unwritten.

These solved cases illustrate the format of a correct answer.
Compound | Tested on | Unit name | TGI
O=C1C(Cl)=C(NCCF)C(=O)c2ncccc21 | UACC-257 melanoma | µM | 3.03
Cc1cn2c(/C=N/N=C(N)N)c(-c3ccncc3)nc2s1 | UACC-257 melanoma | µM | 38.5
NC(N)=N/N=C/c1c(-c2cc([N+](=O)[O-])c(Cl)cc2Cl)nc2n1CCS2 | UACC-257 melanoma | µM | 54.2
COc1ccc2nc3cccc([N+](=O)[O-])c3c(NCCNCCN(C)C)c2c1 | UACC-257 melanoma | µM | 0.604

Next item in the queue.
Query: Reported TGI for UACC-257 melanoma, given CC(C)=C1CCC(CN2CCOCC2)C1=O (stereo unspecified) ?
Result: 32.5

* * *

System: U251 CNS
The categories you may choose from are T = active, F = inactive

Past entries and their recorded results:
Compound structure string | Tested on | Label value
CC(C)(C)c1nc(-c2cccc(NS(=O)(=O)c3c(F)cccc3F)c2F)c(-c2ccnc(N)n2)s1 | U251 CNS | F
NCCOc1ncccc1/C=C1\c2ccccc2-c2ccc([N+](=O)[O-])cc21 | U251 CNS | T

Query: Test call for this compound, please: "COc1ccc(-c2n[nH]nc2-c2cc(OC)c3c(c2)OCO3)cc1"
Result: T

* * *

Tested on: SK-MEL-5 melanoma
Assay: NCI tumour cell line growth inhibition, 48 h
Parameter threshold = 30 µM. Response is Condition met when TGI meets or exceeds it, else Condition not met.

Query: Check the entry "O=C1C=C(Nc2ccc(S(=O)(=O)Nc3ncccn3)cc2)c2ccccc2C1=O" : does TGI equal or exceed 30 µM?
Result: Condition met

Query: Entry "O=C(/C(=N/Nc1ccccc1)c1ccc([N+](=O)[O-])cc1)c1ccc([N+](=O)[O-])cc1" : is its TGI no less than 30 µM?
Result: Condition met

Query: # bool: TGI of "Clc1ccc(OCc2nnc3n2N=C(c2ccccc2)CS3)c(Cl)c1" >= 30 µM
Result: Condition met

Query: Test whether the compound "COc1cc2nc(-c3cccc4cccnc34)nc(NC3CCN(Cc4ccccc4)CC3)c2cc1OC" records TGI of 30 µM or higher.
Result: Condition not met

Query: Is the recorded value of TGI equal to or greater than 30 µM for this compound? "CC1=C(C#N)C(/C=C(\Cl)c2ccc(F)cc2)C(C#N)=C(C)N1"
Result: Condition met

Query: Does TGI meet or surpass 30 µM for "C=CCN(CCN(CC=C)S(=O)(=O)c1ccc(C)cc1)S(=O)(=O)c1ccc(C)cc1" ?
Result: Condition met

* * *

# TGI per record follows
Tested on: UACC-62 melanoma
Test: NCI tumour cell line growth inhibition, 48 h

See these solved cases before continuing.
Molecule | Test readout | Reading
COc1ccc(/C(Cl)=C(\C=O)c2ccc(Cl)cc2)cc1OC | TGI | 39.9 µM
Cc1cn(C2OC(CO)C(O)C2F)c(=O)[nH]c1=O (centres undefined) | TGI | > 100 µM
O=C(NC(=O)c1cn(CCN2CCN(C(=O)NCCCCCCNC(=O)N3CCN(CCn4cc(C(=O)NC(=O)OCc5ccccc5)c(=O)[nH]c4=O)CC3)CC2)c(=O)[nH]c1=O)OCc1ccccc1 | TGI | > 100 µM
COc1cc2c(c(OC)c1OC)-c1ccc(SC)c(=O)cc1C(CC(=O)Oc1cccc(F)c1)C2 (centres undefined) | TGI | 1.07 µM
COc1ccc(CCN2C(=O)CC34C=CC(CC3C2=O)O4)cc1OC (centres undefined) | TGI | > 100 µM
C=C(C)C(=O)OC1C[C@H](COC(C)=O)C2CC=C(CO)C2C2OC(=O)C(=C)[C@H]12 (some centres undefined) | TGI | > 100 µM
Cc1cc2nnc(C(N)=O)c(N)c2cc1C | TGI | > 100 µM
COc1ccc(-c2nn3ncccc3c2-c2ccnc(Nc3ccc4c(c3)OCCO4)n2)cc1 | TGI | > 25 µM

Kindly review the next molecule as well.
Query: Item: N#C/C(=C\c1ccccc1)C(NO)Nc1ccccc1 (centres undefined) Test system: UACC-62 melanoma Read-out: TGI Value: ?
Result: > 100 µM
